The reported numbers originate from paper PMC9482650.

# Tested System: Inadl_3, Q8NI35
# Sequence (Q8NI35 359-469): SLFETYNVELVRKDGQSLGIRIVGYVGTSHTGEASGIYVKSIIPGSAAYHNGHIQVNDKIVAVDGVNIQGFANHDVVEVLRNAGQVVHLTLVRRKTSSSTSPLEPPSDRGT
# Experiment: holdup assay
# Design: key: below the threshold = too weak to quantify, mostly under pKd 3.1 to 4
# Experimental Conditions: plain residues with an end cap or a label only (N-terminal biotin on a linker: ttds)
Recorded Metric: pKd

Past entries and their recorded results:
>>> result("VDFPPKESSL [ACVR2A, P27037]")
"below the threshold"
>>> result("RPLPRKVSQL [DOCK4, Q8N1I0]")
"below the threshold"
>>> result("PRVKPQRSKV [PPP1R13L, Q8WUF5]")
"below the threshold"
>>> result("SKPTRRETEV [HPV35-E6, P27228]")
"below the threshold"
>>> result("QRQARSETLV [HPV59-E6, Q81964]")
"below the threshold"
>>> result("PVRVCEETSL [OTULIN, Q96BN8]")
3.66
>>> result("SGSRPSATVV [HPV73-E6, Q82005]")
"below the threshold"

Ask: Which pKd is listed for NDPAWDETNL [ARHGEF7, Q14155;Q14155-1] ?
Result: below the threshold
